Tested on: K24384-001-R-PDC complex spheroids, viability
protocol-summary: Anticancer human tumor K24384-001-R-PDC patient-derived pancreatic adenocarcinoma cell line growth inhibition [GQUAD]
test-settings: second compound 10 µM; first compound 1 µM; hits give low values
measure: viability, T/C (%)
Give bare numbers, in %.

COc1cc(C2c3cc4c(cc3C(OC3OC5COC(C)OC5C(O)C3O)C3COC(=O)C23)OCO4)cc(OC)c1O (stereo not given) + Cc1[nH]c2ccc(F)cc2c1-c1nc2c3cccnc3c3ncccc3c2[nH]1    47.7
Cc1cccc(N(C)C(=O)C2C(O)CCN2c2nc(C)cc(C(F)(F)F)c2C#N)c1 (stereo not given) + Cc1[nH]c2ccc(F)cc2c1-c1nc2c3cccnc3c3ncccc3c2[nH]1    85.6
CCCS(=O)(=O)Nc1ccc(F)c(C(=O)c2c[nH]c3ncc(-c4ccc(Cl)cc4)cc23)c1F + CN(C)c1ccc(Nc2c3ccc(NC(=O)CCN4CCCC4)cc3nc3cc(NC(=O)CCN4CCCC4)ccc23)cc1    149
O=C(NO)c1cnc(N2CCN(S(=O)(=O)c3ccc4ccccc4c3)CC2)nc1 + Cc1[nH]c2ccc(F)cc2c1-c1nc2c3cccnc3c3ncccc3c2[nH]1    44.9

**Query** // lookup viability, T/C for C#Cc1c(F)ccc2cc(O)cc(-c3ncc4c(N5CC6CCC(C5)N6)nc(OCC56CCCN5CC(F)C6)nc4c3F)c12 (stereo not given) + Cc1[nH]c2ccc(F)cc2c1-c1nc2c3cccnc3c3ncccc3c2[nH]1
**Result** 52.4

* * *

System: K24384-001-R-PDC complex spheroids, viability
protocol-summary: Anticancer human tumor K24384-001-R-PDC cell line growth inhibition [GQUAD]; active = viability on the fitted dose curve at most 10% of control; inactive = the rest;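 further: spheroids exposed to compounds for seven days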
test-settings: second compound 1 µM; first compound 10 µM
Your response should consist of one outcome taken from True (active), False (inactive)

O=C(NO)c1cnc(N2CCN(S(=O)(=O)c3ccc4ccccc4c3)CC2)nc1 + CN(C)c1ccc(Nc2c3ccc(NC(=O)CCN4CCCC4)cc3nc3cc(NC(=O)CCN4CCCC4)ccc23)cc1    True
C=CCn1c(=O)c2cnc(Nc3ccc(N4CCN(C)CC4)cc3)nc2n1-c1cccc(C(C)(C)O)n1 + CN(C)c1ccc(Nc2c3ccc(NC(=O)CCN4CCCC4)cc3nc3cc(NC(=O)CCN4CCCC4)ccc23)cc1    False
Nc1ccn(C2OC(CO)C(O)C2(F)F)c(=O)n1 (stereo unspecified) + Cc1[nH]c2ccc(F)cc2c1-c1nc2c3cccnc3c3ncccc3c2[nH]1    False
COc1ccc([C@@H](O)c2cc(-c3ncnc4cc(N5CCOCC5)ccc34)c(F)cc2Cl)nn1 + Cc1cnc(CNC(=O)c2c(=O)c3ccc(N4CCCN(C)CC4)nc3n3c2sc2ccccc23)cn1    False
Cc1cccc(N(C)C(=O)C2C(O)CCN2c2nc(C)cc(C(F)(F)F)c2C#N)c1 (stereo unspecified) + Cc1[nH]c2ccc(F)cc2c1-c1nc2c3cccnc3c3ncccc3c2[nH]1    False

Field: next compound
**Query** Per the assay record, what outcome was assigned to O=C(c1cc(Cc2n[nH]c(=O)c3ccccc23)ccc1F)N1CCN(C(=O)C2CC2)CC1 + Cc1[nH]c2ccc(F)cc2c1-c1nc2c3cccnc3c3ncccc3c2[nH]1 ?
**Result** False

* * *

Test system: K24384-001-R-PDC complex spheroids, viability
protocol-summary: Anticancer human tumor K24384-001-R-PDC cell line growth inhibition [GQUAD];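 further: spheroids exposed to compounds for seven days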
test-settings: second compound 0.0316 µM; first compound 0.00316 µM; hits give low values
measure: viability, T/C

Please review the entries below; each comes with its answer.
Cn1ncnc1[C@H]1c2n[nH]c(=O)c3cc(F)cc(c23)N[C@@H]1c1ccc(F)cc1 + Cc1cnc(CNC(=O)c2c(=O)c3ccc(N4CCCN(C)CC4)nc3n3c2sc2ccccc23)cn1    80.8%
CCc1c2c(nc3ccc(O)cc13)-c1cc3c(c(=O)n1C2)COC(=O)[C@]3(O)CC + CN(C)c1ccc(Nc2c3ccc(NC(=O)CCN4CCCC4)cc3nc3cc(NC(=O)CCN4CCCC4)ccc23)cc1    78.2%

As a next step, examine the molecule that follows.
**Query** Quick check: viability, T/C of Cn1ncnc1[C@H]1c2n[nH]c(=O)c3cc(F)cc(c23)N[C@@H]1c1ccc(F)cc1 + CN(C)c1ccc(Nc2c3ccc(NC(=O)CCN4CCCC4)cc3nc3cc(NC(=O)CCN4CCCC4)ccc23)cc1 ?
**Result** 82.2%
